MIC tested on S. aureus ASAU1029 (CA-MRSA, USA300): recorded values

Compound	Assay target	Recorded result
Nc1nnc(SC2=C(C(=O)O)N3C(=O)[C@@H](NC(=O)/C(=N\O)c4nc(N)sc4Cl)[C@H]3CC2)s1 [Comparative Compound 2, reference compound]	S. aureus ASAU1029 (CA-MRSA, USA300)	1 to 8 µg/mL
Nc1nc(/C(=N/O)C(=O)N[C@@H]2C(=O)N3C(C(=O)O)=C(SCSc4nncs4)CC[C@H]23)c(Cl)s1	S. aureus ASAU1029 (CA-MRSA, USA300)	1 to 8 µg/mL
Nc1nc(/C(=N/O)C(=O)N[C@@H]2C(=O)N3C(C(=O)O)=C(SCc4ccccc4)CC[C@H]23)c(Cl)s1	S. aureus ASAU1029 (CA-MRSA, USA300)	≤ 1 µg/mL
Nc1nc(/C(=N/O)C(=O)N[C@@H]2C(=O)N3C(C(=O)O)=C(SCc4cn[nH]c4)CC[C@H]23)c(Cl)s1	S. aureus ASAU1029 (CA-MRSA, USA300)	1 to 8 µg/mL
Nc1nc(/C(=N/O)C(=O)N[C@@H]2C(=O)N3C(C(=O)O)=C(SCc4ccncc4)CC[C@H]23)c(Cl)s1	S. aureus ASAU1029 (CA-MRSA, USA300)	1 to 8 µg/mL
Nc1nc(/C(=N\O)C(=O)NC2C(=O)N3C(C(=O)O)=C(/C=C4\CCN(C5CCNC5)C4=O)CS[C@H]23)ns1 (stereo partly drawn) [Comparative Compound 1, reference compound]	S. aureus ASAU1029 (CA-MRSA, USA300)	≤ 1 µg/mL

Data request: // fetch S. aureus ASAU1029 (CA-MRSA, USA300) MIC for "Cc1ncsc1/C=C\C1=C(C(=O)O)N2C(=O)[C@@H](NC(=O)/C(=N\O)c3nc(N)sc3Cl)[C@H]2CC1"
Data returned: ≤ 1 µg/mL

Data request: Please provide the recorded MIC for "CNc1nnc(SCSC2=C(C(=O)O)N3C(=O)[C@@H](NC(=O)/C(=N\O)c4nc(N)sc4Cl)[C@H]3CC2)s1" , tested on S. aureus ASAU1029 (CA-MRSA, USA300).
Data returned: 1 to 8 µg/mL

Data request: Give S. aureus ASAU1029 (CA-MRSA, USA300) MIC for "Nc1nc(/C(=N/O)C(=O)N[C@@H]2C(=O)N3C(C(=O)O)=C(/C=C4\CCN([C@@H]5CCNC5)C4=O)CC[C@H]23)c(Cl)s1"
Data returned: ≤ 1 µg/mL
